B1: library; a variant is named by its letters at N, in order (parent)
chain: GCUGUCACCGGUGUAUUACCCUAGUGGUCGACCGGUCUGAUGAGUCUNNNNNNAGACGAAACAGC

Variants of: B1
Test: normalized RNA/DNA level with ligand (relative to sTRSVctl = 100) (log10 (% of sTRSVctl)); ligand: hypoxanthine (xanthine aptamer); higher = less ribozyme self-cleavage, higher mRNA level
Settings: ligand concentration (+) RNA-Seq: 5 mM, HEK293T, reporter: mCherry (pCS4076), ligand present: yes
Listed next: entries and their corresponding normalized RNA/DNA level with ligand (log10).
Keep it simple and answer with nothing but the number.

Please review the following examples before continuing.
| MUTANT_CODE | RECORDED_RESULT |
| --- | --- |
| CACGAU | 1.95 |
| ACCGCA | 1.93 |
| GAGCGC | 1.89 |
| AAUACC | 1.93 |
| UAAUCC | 1.92 |

Input: Look at this variant and give its reported normalized RNA/DNA level with ligand (log10). CGUACC
Output: 1.98

Input: Look at this variant and give its reported normalized RNA/DNA level with ligand (log10). GGGUAG
Output: 1.74

Input: Look at this variant and give its reported normalized RNA/DNA level with ligand (log10). UUCUAC
Output: 1.87

Input: Look at this variant and give its reported normalized RNA/DNA level with ligand (log10). CGGUGA
Output: 1.93

Input: Look at this variant and give its reported normalized RNA/DNA level with ligand (log10). AGCCCU
Output: 1.94

Input: Look at this variant and give its reported normalized RNA/DNA level with ligand (log10). CAUGUG
Output: 1.93

Input: Look at this variant and give its reported normalized RNA/DNA level with ligand (log10). AAUAGA
Output: 1.89
